The values you see were collected from patent US11780845B2.

molecular target: FGFR2 (Homo sapiens (Human), UniProt P21802); experiment: FGFR2 Biochemical Caliper Assay
Sequence (P21802 22-821): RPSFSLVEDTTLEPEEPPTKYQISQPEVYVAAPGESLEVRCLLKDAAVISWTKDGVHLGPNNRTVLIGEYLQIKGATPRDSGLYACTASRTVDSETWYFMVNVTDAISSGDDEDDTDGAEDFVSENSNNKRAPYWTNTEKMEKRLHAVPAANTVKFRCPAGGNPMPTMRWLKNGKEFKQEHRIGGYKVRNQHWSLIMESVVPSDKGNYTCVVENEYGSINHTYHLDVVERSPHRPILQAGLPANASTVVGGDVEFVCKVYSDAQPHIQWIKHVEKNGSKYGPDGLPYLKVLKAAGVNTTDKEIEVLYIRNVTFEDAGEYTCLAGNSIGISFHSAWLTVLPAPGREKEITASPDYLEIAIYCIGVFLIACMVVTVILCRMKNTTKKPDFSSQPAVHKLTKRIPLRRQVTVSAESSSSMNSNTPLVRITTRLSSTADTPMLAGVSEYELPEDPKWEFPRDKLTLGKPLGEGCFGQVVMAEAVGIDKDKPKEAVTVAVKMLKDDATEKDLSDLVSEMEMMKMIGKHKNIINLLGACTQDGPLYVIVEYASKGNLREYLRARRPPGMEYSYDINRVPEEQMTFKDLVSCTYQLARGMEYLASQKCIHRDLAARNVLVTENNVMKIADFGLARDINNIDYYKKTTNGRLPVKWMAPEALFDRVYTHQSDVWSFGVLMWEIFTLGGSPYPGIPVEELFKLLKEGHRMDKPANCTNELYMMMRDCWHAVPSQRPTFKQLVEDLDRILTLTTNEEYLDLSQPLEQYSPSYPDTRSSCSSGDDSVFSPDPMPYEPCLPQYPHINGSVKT

compound | IC50
C=CC(=O)Nc1ccc(-c2c(-c3ccc(ON4CCCC4)cc3)c3c(N)ncnc3n2C)c(C)c1 [Example 216] | < 100 nM
C/C=C/C(=O)N1CC(n2cc(-c3c(-c4ccc(Oc5cccc(C)n5)cc4)c4c(N)ncnc4n3C)cn2)C1 [Example 639] | < 100 nM
C=C(C)C(=O)Nc1ccc(-c2c(-c3ccc4c(c3)CNC4=O)c3c(N)ncnc3n2C)cc1 [Example 250] | 1000 to 100000 nM
C=C(C)C(=O)Nc1ccc(-c2c(-c3ccc(C(=O)N(C)CC(F)(F)F)cc3)c3c(N)ncnc3n2C)cc1 [Example 304] | < 100 nM
C=C(C)C(=O)Nc1ccc(-c2c(-c3ccc(C(=O)NC4CCCOC4)cc3)c3c(N)ncnc3n2C)cc1 (stereo not shown) [Example 327] | < 100 nM
C=C(C)C(=O)Nc1ccc(-c2c(-c3ccc(C(=O)N(CCN(C)C)CC(F)(F)F)cc3)c3c(N)ncnc3n2C)cc1 [Example 454] | 250 to 1000 nM
C=C(C)C(=O)Nc1ccc(-c2c(-c3ccc4c(c3)CC(=O)N4)c3c(N)ncnc3n2C)cc1 [Example 125] | 1000 to 100000 nM

====

target: UniProt P21802; test: Biochemical FGFR2 Caliper assay
Some compounds, each annotated with its measured IC50.

compound | IC50
C=C(C)C(=O)Nc1ccc(-c2c(-c3ccc(-n4cc(C)cn4)nc3)c3c(N)ncnc3n2C(C)C)cc1 | 100 to 250 nM
C=CC(=O)Nc1ccc(-c2cn3ncnc(N)c3c2-c2ccc(C(=O)N3CCCCC3)cc2)cc1 | < 100 nM
C=CC(=O)N1CCN(c2cccc(-c3c(-c4ccc(Oc5cccc(C)n5)cc4)c4c(N)ncnc4n3C)c2)CC1 | < 100 nM
C#Cc1cnc(-c2c(-c3ccc(Oc4nccc(C)n4)c(F)c3)c3c(N)ncnc3n2C)c(CN(C)C)c1 | 100 to 250 nM
C=C(C)C(=O)Nc1ccc(-c2c(C3=CC[C@@H](C(=O)N4CCC[C@H]4C4CC4)CC3)c3c(N)ncnc3n2C)cc1 | 250 to 1000 nM
C#Cc1ccc(-c2c(-c3ccc(C(=O)N4CCCC4)cc3)c3c(N)ncnc3n2C)cn1 | 1000 to 100000 nM
C=Cc1nc2ccc(-c3c(-c4ccc(Oc5nccc(C)n5)cc4)c4c(N)ncnc4n3C)cc2[nH]1 | 250 to 1000 nM
C=C(C)C(=O)Nc1ccc(-c2c(-c3ccc(-c4ccnn4C)nc3)c3c(N)ncnc3n2C)cc1 | < 100 nM
C=CC(=O)N1CC(c2c(C3=CC[C@H](C(=O)N4CCCC4)CC3)c3c(N)ncnc3n2C)C[C@@H]1C (some centres unmarked) | 250 to 1000 nM
C#Cc1cc(C)c(-c2c(C3=CC[C@H](C(=O)N4CCCC45CC5)CC3)c3c(N)ncnc3n2C)cn1 | 250 to 1000 nM
C=CC(=O)Nc1ccc(-c2c(-c3ccc(O)cc3)c3c(N)ncnc3n2C)cc1 | < 100 nM
C#Cc1cc(C)c(-c2c(C3=CC[C@@H](C(=O)N4CCCC4=O)CC3)c3c(N)ncnc3n2C)cn1 (single isomer, unassigned) | < 100 nM
C#Cc1cc(C)c(-c2c(-c3ccc(OC(F)(F)F)cc3)c3c(N)ncnc3n2C)cn1 | < 100 nM
CN(C)C/C=C/C(=O)Nc1ccc(-c2c(C3=CC[C@H](C(=O)N4CCCC4)CC3)c3c(N)ncnc3n2C)cc1 (single isomer, unassigned) | < 100 nM
C#Cc1cc2c(cn1)-c1c(-c3ccc(Oc4nccc(C)n4)c(F)c3)c3c(N)ncnc3n1[C@H](C)CO2 | 250 to 1000 nM
C#Cc1cc(C)c(-c2c(-c3ccc(C(=O)N4CCC[C@H]4C#C)cc3)c3c(N)ncnc3n2C)cn1 | < 100 nM
C=CC(=O)N1CCc2ccc(-c3c(-c4ccc(Oc5nccc(C)n5)cc4)c4c(N)ncnc4n3C)cc2C1 | 1000 to 100000 nM
Cn1c(-c2ccc(NC(=O)CC#N)cc2)c(-c2ccc(C(=O)N3CCCC3)cc2)c2c(N)ncnc21 | 1000 to 100000 nM
C#Cc1cc(C)c(-c2c(C3=CC[C@@H](C(=O)N4CCCC4)CC3)c3c(C)ncnc3n2C)cn1 (single isomer, unassigned) | < 100 nM
C=C(C)C(=O)Nc1ccc(-c2c(C3=CC[C@H](C(=O)N4CCC[C@@H]4C)CC3)c3c(N)ncnc3n2C)cc1 | < 100 nM

====

Some molecules, each annotated with its measured pIC50.
biological target: FGFR2 (Homo sapiens (Human)); test: FGFR2 Biochemical Caliper Assay
pIC50: −log10 of the molar value.

molecule | pIC50
C=CC(=O)N1CCC(n2cc(-c3c(-c4ccc(Oc5cccc(C)n5)cc4)c4c(N)ncnc4n3C)cn2)C1 (centres unmarked) | > 7.00
C=C(C)C(=O)Nc1ccc(-c2c(-c3ccc(C(=O)N(C)Cc4nnc(C)o4)cc3)c3c(N)ncnc3n2C)cc1 | 4.00 to 6.00
C=C(C)C(=O)Nc1ccc(-c2c(-c3ccc(-c4ncco4)nc3)c3c(N)ncnc3n2C)cc1 | 4.00 to 6.00
C=CC(=O)Nc1ccc(-c2c(-c3ccc(Sc4ncccn4)c(OC)c3)c3c(N)ncnc3n2C)cc1 | > 7.00
C=CC(=O)N1CCC(c2nc(-c3c(-c4ccc(Oc5cccc(C)n5)cc4)c4c(N)ncnc4n3C)no2)CC1 | > 7.00
C=C(C)C(=O)Nc1ccc(-c2c(-c3ccc(Oc4ccn(C)n4)cc3)c3c(N)ncnc3n2C)cc1 | > 7.00
C=C(C)C(=O)Nc1ccc(-c2c(-c3ccc(NC(=O)C4CCC4)cc3)c3c(N)ncnc3n2C)cc1 | > 7.00
C=C(C)C(=O)Nc1ccc(-c2c(C3=CCC(C(=O)NCC4CCC4)CC3)c3c(N)ncnc3n2C)cc1 (centres unmarked) | 6.60 to 7.00

====

biological target: FGFR2 (Homo sapiens (Human)); assay: Biochemical FGFR2 Caliper assay
pIC50: −log10 of the molar value.
Some compounds, each annotated with its measured pIC50.
endpointLabel: pIC50

compound | measuredTarget | endpointLabel | observedMeasurement
C=CC(=O)N[C@H]1CCc2ccc(-c3c(-c4ccc(Oc5nccc(C)n5)cc4)c4c(N)ncnc4n3C)cc2C1 (single isomer, unassigned) [Example 945] | FGFR2 (Homo sapiens (Human)) | pIC50 | 4.00 to 6.00
C=C(C)C(=O)Nc1ccc(-c2c(C3=CC[C@@H](C(=O)N4CC[C@@H]5C[C@@H]54)CC3)c3c(N)ncnc3n2C)cc1 [Example 1037] | FGFR2 (Homo sapiens (Human)) | pIC50 | > 7.00
C#Cc1cc(OC)c(-c2c(-c3ncc(Oc4nccc(C)n4)cc3F)c3c(N)ncnc3n2C)cn1 [Example 1452] | FGFR2 (Homo sapiens (Human)) | pIC50 | > 7.00
C#CCCCCn1c(-c2ccc(NC(=O)C(=C)C)cc2)c(-c2ccc(Oc3nccc(C)n3)c(F)c2)c2c(N)ncnc21 [Example 1007] | FGFR2 (Homo sapiens (Human)) | pIC50 | > 7.00
C=C(C)C(=O)Nc1ccc(-c2c(C3=CC[C@@H](C(=O)N4CCCC45CCC5)CC3)c3c(N)ncnc3n2C)cc1 [Example 998] | FGFR2 (Homo sapiens (Human)) | pIC50 | > 7.00
C=CC(=O)N(C)C1CCC(c2c(-c3ccc(Oc4cccc(C)n4)cc3)c3c(N)ncnc3n2C)C1 (stereo not shown) [Example 816] | FGFR2 (Homo sapiens (Human)) | pIC50 | 6.00 to 6.60
C=C(C)C(=O)Nc1ccc(-c2c(C3=CC[C@@H](C(=O)N4CCCC4)OC3)c3c(N)ncnc3n2C)cc1 [Example 1015] | FGFR2 (Homo sapiens (Human)) | pIC50 | 4.00 to 6.00
C#C[C@H]1CCCN1C(=O)[C@H]1CC=C(c2c(-c3ccc(NC(=O)C(=C)C)cc3)n(C)c3ncnc(N)c23)CC1 (single isomer, unassigned) [Example 950] | FGFR2 (Homo sapiens (Human)) | pIC50 | 4.00 to 6.00
CC1=CCCN(c2ccc(-c3c(-c4ccc(Oc5nccc(C)n5)cc4)c4c(N)ncnc4n3C)cc2)C1=O [Example 1090] | FGFR2 (Homo sapiens (Human)) | pIC50 | > 7.00
C=C(C)C(=O)Nc1ccc(-c2c(-c3cnc(-c4ccccc4C)s3)c3c(N)ncnc3n2C)cc1 [Example 1422] | FGFR2 (Homo sapiens (Human)) | pIC50 | 6.00 to 6.60
C#Cc1nc2cc(-c3c(-c4ccc(Oc5nccc(C)n5)c(F)c4)c4c(N)ncnc4n3C)c(OC)cc2n1C [Example 1426] | FGFR2 (Homo sapiens (Human)) | pIC50 | > 7.00
C=CC(=O)N1CCCc2c1nc(-c1c(-c3ccc(Oc4nccc(C)n4)cc3)c3c(N)ncnc3n1C)n2C [Example 1045] | FGFR2 (Homo sapiens (Human)) | pIC50 | 4.00 to 6.00
C=CC(=O)Nc1ccc(-c2c(-c3ccc(C(=O)NCC4(F)COC4)cc3)c3c(N)ncnc3n2C)cc1 [Example 1020] | FGFR2 (Homo sapiens (Human)) | pIC50 | 6.60 to 7.00
C#Cc1cnc2c(cc(-c3c(-c4ccc(Oc5nccc(C)n5)c(F)c4)c4c(N)ncnc4n3C)n2C)n1 [Example 1413] | FGFR2 (Homo sapiens (Human)) | pIC50 | > 7.00
C#Cc1cnc2cc(-c3c(-c4ccc(Oc5nccc(C)n5)c(F)c4)c4c(N)ncnc4n3C)ccc2c1 [Example 1425] | FGFR2 (Homo sapiens (Human)) | pIC50 | 4.00 to 6.00
C#Cc1cc(F)c(-c2c(-c3ccc(Oc4nccc(C)n4)c(F)c3)c3c(N)ncnc3n2C)cn1 [Example 1198] | FGFR2 (Homo sapiens (Human)) | pIC50 | > 7.00
